Tested on: SNB-78
Assay: NCI tumour cell line growth inhibition, 48 h
Active and inactive are the calls of the source. No stated cut-off is given here; in the data, active = GI50 up to about 1.1 µM and inactive = higher.
Outcome codes: active, inactive

molecule | group
COC(=O)C(Cc1nc2ccccc2nc1O)C(NO)C(=O)Nc1c(Cl)cc([N+](=O)[O-])cc1Cl (stereo not given) | inactive
O=C(CN(c1ccccc1)c1ccccc1)N1c2ccccc2C2C=CC=CC21 (stereo not given) | inactive
CN(C)CCCNC(=O)c1cccc2ccccc12 | inactive
CC(=O)NC(C=O)C(O[C@H](C)C(=O)NC(C)C(=O)NC(CCC(N)=O)C(=O)OCc1ccccc1)C(O)C(O)COC(=O)CCNc1c2ccccc2nc2cccc([N+](=O)[O-])c12 (stereo not given in full) | inactive
Cc1cc(C)[n+](CCOc2ccc(/C(=C(/Cl)c3ccccc3)c3ccccc3)cc2)c(C)c1.[O-][Cl+3]([O-])([O-])[O-] | inactive
CN(C)CCNc1ccc2ncn3c4ccccc4c(=O)c1c23 | inactive
CN1Cc2c(nc(-c3ccc(Br)cc3)c[n+]2[O-])N(C)C1 | inactive
C/C(=N\N=C(/[SeH])N1CC2CCC(CC2)C1)c1ccccn1 | active
[N-]=[N+]=Nc1c(Br)c(=O)[nH]c(=O)n1COCCO | inactive
Cn1c(=O)nc2n(-c3cccc(F)c3)c3ccccc3nc-2c1=O | inactive
COC(=O)c1ccccc1NC(=O)C(=O)Cc1nc2c3c(ccc2nc1O)C(=O)c1ccccc1C3=O | inactive
CC(=O)OC1COC(N2C(=O)C(=O)c3cc(Br)ccc32)C(OC(C)=O)C1OC(C)=O (stereo not given) | inactive
C[N+]1=C(c2cccnc2/C=N/O)OCC1(C)C | inactive
COc1ccc(CCC2c3cc(OC)c(OC)cc3CCN2C)cc1OC (stereo not given) | inactive
CCCCCCCCC/C=C1\CCC(CN(C)C)C1=O (stereo not given) | inactive
COc1ccc(/C=c2/sc3n(c2=O)NC2(CCCCC2)NN=3)cc1 | inactive
O=C(O)c1ccc(NC(=O)C2C(=O)C(=O)N(c3ccc(C(=O)O)cc3)C2=O)cc1 (stereo not given) | inactive
CCCO/N=[N+](\[O-])N(CC)CC | inactive
Sc1ncnc2nc[nH]c12 [MERCAPTOPURINE ANHYDROUS] | inactive
CC1CC[C@]2(C(=O)O)CCC3(COC(=O)/C=C\c4ccc(O)cc4)C(=CCC4[C@@]5(C)CC[C@H](O)C(C)(C)C5CC[C@]43C)[C@@H]2[C@H]1C (stereo not given in full) | inactive

The reported measurements were obtained from ChEMBL document CHEMBL1201862.
